Reference source: patent US20150239980A1

Biological target: T1, recombinant hMCAM-His (human, UniProt P43121 24-559)
T1 construct: not shown: His tag
T1 chain: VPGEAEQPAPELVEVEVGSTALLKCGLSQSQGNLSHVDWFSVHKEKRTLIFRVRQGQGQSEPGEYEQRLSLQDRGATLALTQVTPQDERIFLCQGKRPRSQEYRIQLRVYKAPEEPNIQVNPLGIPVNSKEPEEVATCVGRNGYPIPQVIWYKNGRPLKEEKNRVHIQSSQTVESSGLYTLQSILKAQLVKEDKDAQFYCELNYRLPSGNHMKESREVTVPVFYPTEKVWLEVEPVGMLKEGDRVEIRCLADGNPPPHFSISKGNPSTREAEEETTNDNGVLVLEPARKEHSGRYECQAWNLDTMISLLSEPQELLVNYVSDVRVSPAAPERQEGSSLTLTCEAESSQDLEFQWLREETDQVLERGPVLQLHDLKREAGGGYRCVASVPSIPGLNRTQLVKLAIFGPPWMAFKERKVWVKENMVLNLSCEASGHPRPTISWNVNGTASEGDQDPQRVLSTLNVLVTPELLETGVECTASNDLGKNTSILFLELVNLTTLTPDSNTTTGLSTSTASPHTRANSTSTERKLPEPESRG
Experiment: ForteBio Octet Red, hMCAM-His analyte; Forte column 1; vs rodent 1749
Each entry below carries its reported fold over rodent (Forte affinity).

[
  {
    "binder": "chimeric 1749 (antibody, V domains shown) VH: DVKLVESGGDLVKPGGSLKLSCAASGFTFSSYIMSWVRQTPEKRLEWVATISSGGSSTYYPDSVKGRFTISRDNAKNTLYLQMSSLKSEDTAMYYCTRDDDYDVKVFAYWGQGTLVTVSA VL: DIVMSQSPSSLAVSAGEKVTMNCKSSRSLLNSRIRKNYLAWYQQKPGQSPKLLIYWASTRESGVPDRFTGSGSGTDFTLTISSVQAEDLAVYYCKQSYNLLTFGAGTKLELK",
    "fold over rodent (Forte affinity), fold": 0.6
  },
  {
    "binder": "h1749VH1 + h1749VL1 (antibody, human IgG1, V domains shown, also called humanized 1749 standard VH and VL) VH: EVQLVESGGGLVQPGGSLRLSCAASGFTFSSYIMSWVRQAPGKGLEWVATISSGGSSTYYPDSVKGRFTISRDNAKNSLYLQMNSLRAEDTAVYYCTRDDDYDVKVFAYWGQGTMVTVSS VL: DIVMTQSPDSLAVSLGERATINCKSSRSLLNSRIRKNYLAWYQQKPGQPPKLLIYWASTRESGVPDRFSGSGSGTDFTLTISSLQAEDVAVYYCKQSYNLLTFGQGTKVEIK",
    "fold over rodent (Forte affinity), fold": 2.5
  },
  {
    "binder": "h1749VH1 + h1749VL2 (antibody, human IgG1, V domains shown) VH: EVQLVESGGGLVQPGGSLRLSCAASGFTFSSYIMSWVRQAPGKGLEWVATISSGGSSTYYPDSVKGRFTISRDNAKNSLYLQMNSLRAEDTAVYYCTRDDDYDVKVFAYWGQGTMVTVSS VL: DIVMTQSPDSLAVSLGERATINCKSSRSLLNSRIRKNYLAWYQQKPGQPPKLLIYWASTRESGVPDRFTGSGSGTDFTLTISSLQAEDVAVYYCKQSYNLLTFGQGTKVEIK",
    "fold over rodent (Forte affinity), fold": 2.5
  },
  {
    "binder": "h1749VH2 + h1749VL1 (antibody, human IgG1, V domains shown, also called h1749VH2VL1) VH: EVQLVESGGGLVQPGGSLRLSCAASGFTFSSYIMSWVRQAPGKRLEWVATISSGGSSTYYPDSVKGRFTISRDNAKNSLYLQMNSLRAEDTAVYYCTRDDDYDVKVFAYWGQGTMVTVSS VL: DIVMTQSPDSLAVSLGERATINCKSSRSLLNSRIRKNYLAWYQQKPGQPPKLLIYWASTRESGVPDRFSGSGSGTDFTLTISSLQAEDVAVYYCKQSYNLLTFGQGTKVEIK",
    "fold over rodent (Forte affinity), fold": 1.2
  },
  {
    "binder": "mouse anti-human MCAM monoclonal antibody clone 1749.1.3 (antibody, V domains shown, mouse hybridoma antibody; also called rodent 1749; murine 1749.1.3 anti-MCAM antibody) VH: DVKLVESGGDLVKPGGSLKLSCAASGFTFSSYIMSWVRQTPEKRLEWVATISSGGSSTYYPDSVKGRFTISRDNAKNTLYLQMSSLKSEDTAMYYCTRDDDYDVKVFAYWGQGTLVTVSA VL: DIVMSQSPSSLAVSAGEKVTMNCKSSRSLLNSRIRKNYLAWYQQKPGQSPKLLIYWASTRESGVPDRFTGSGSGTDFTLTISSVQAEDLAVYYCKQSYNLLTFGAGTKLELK",
    "fold over rodent (Forte affinity), fold": 1
  },
  {
    "binder": "h1749VH2 + h1749VL2 (antibody, human IgG1, V domains shown, also called humanized 1749 conservative VH and VL) VH: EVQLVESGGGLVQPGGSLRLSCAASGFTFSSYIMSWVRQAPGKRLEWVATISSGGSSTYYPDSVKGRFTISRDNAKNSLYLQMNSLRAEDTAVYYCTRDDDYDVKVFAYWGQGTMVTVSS VL: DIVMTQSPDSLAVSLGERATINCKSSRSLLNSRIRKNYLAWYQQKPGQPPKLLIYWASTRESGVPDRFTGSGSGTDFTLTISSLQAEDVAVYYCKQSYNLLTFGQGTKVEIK",
    "fold over rodent (Forte affinity), fold": 0.7
  }
]
